Value source: patent US20150252427A1

- SYSTEM: T1, H-2 K^d molecules purified by affinity chromatography (human, UniProt P61769 21-119; P01902 22-305)
- T1 construct: MHC class I molecule, 1-10 nM in the assay, with added human beta-2 microglobulin; also called purified MHC molecules
- EXPERIMENT SUMMARY: radiolabeled peptide inhibition assay, purified H-2 K^d;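 note: competitive binding with labeled probe peptide kept below MHC concentration, so IC50 approximates the dissociation constant KD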
pIC50: −log10 of the molar value.
Record Satisfied whenever pIC50 is at 5 or higher; record Not satisfied when lower.

Examples from the recorded data:
1) LYVSKLNGP (Mut of L(y/D)VSKLNGP; Meth A) [Galnt1 Mut peptide] :: Not satisfied
2) GYSVLHLAI (Mut of G(y/D)SVLHLAI; Meth A) [Nfkb1 Mut peptide] :: Satisfied

Please tell me: is the binder DYVPMEQP (Mut of D(y/D)VPMEQP; CMS5) [Alkbh6.1 Mut peptide] at or over 5 in terms of pIC50?
Not satisfied

Please tell me: is the binder AYILAALTKLQ (Meth A) [Trim26.2 Mut peptide] at or over 5 in terms of pIC50?
Not satisfied

Please tell me: is the binder LYHTRPTAL (Mut of L(y/D)HTRPTAL; Meth A) [Kdm4b Mut peptide] at or over 5 in terms of pIC50?
Satisfied

Please tell me: is the binder PALKSEEKTL (CMS5) [Stau1.3 Mut peptide] at or over 5 in terms of pIC50?
Not satisfied

Please tell me: is the binder VYLTCRLEKPA (Meth A) [Gapdh Mut peptide] at or over 5 in terms of pIC50?
Satisfied

Please tell me: is the binder PYKRLKAEPA (Meth A) [Prrc2a Mut peptide] at or over 5 in terms of pIC50?
Satisfied

Please tell me: is the binder GFHGCIHEVL (CMS5) [Slit3 Mut peptide] at or over 5 in terms of pIC50?
Not satisfied

Please tell me: is the binder QVFPGLMER [Atxn10.1 WT peptide] at or over 5 in terms of pIC50?
Satisfied

Please tell me: is the binder GDSVLHLAI (WT of G(y/D)SVLHLAI) [Nfkb1 WT peptide] at or over 5 in terms of pIC50?
Satisfied

Please tell me: is the binder PYLTQYAIIML (CMS5) [Dhx8.1 Mut peptide] at or over 5 in terms of pIC50?
Satisfied

Please tell me: is the binder PDKRLKAEPA [Prrc2a WT peptide] at or over 5 in terms of pIC50?
Satisfied

Please tell me: is the binder SEDKIKAIP [Rangap1 WT peptide] at or over 5 in terms of pIC50?
Satisfied
